Tested on: SF-268 CNS
Assay: NCI tumour cell line growth inhibition, 48 h
measured_parameter: log10 of TGI (log10 of the value in µM)

[[record]]
compound = "CC(C)=Cc1cc2c(cc1O)CCC1C2CC[C@@]2(C)C1CC[C@@H]2O (stereo not given in full)"
target_system = "SF-268 CNS"
result_number = 1.56

[[record]]
compound = "CC12OC(CC(O)C1O)n1c3ccccc3c3c4c(c5c6ccccc6n2c5c31)C(=O)N(CCN1CCCC1)C4=O (stereo not given)"
target_system = "SF-268 CNS"
result_number = 0.93

[[record]]
compound = "CCCCCCCC/C=C(\\Br)C(O)C(Br)Br (stereo not given)"
target_system = "SF-268 CNS"
result_number = 1.73

[[record]]
compound = "O=C(c1ccccc1)c1c(C(F)(F)F)n([O-])c2ccc(F)cc2[n+]1=O"
target_system = "SF-268 CNS"
result_number = 0.38

[[record]]
compound = "COc1ccc([As]=[As]c2ccc(OC)c(NCS(=O)(=O)O)c2)cc1NCS(=O)(=O)O (stereo not given)"
target_system = "SF-268 CNS"
result_number = 0.61


====

Test system: TK-10 renal
Experiment: NCI tumour cell line growth inhibition, 48 h
measured_parameter: TGI

[[record]]
compound = "Cn1c(-c2ccccc2)c2cc3nc4ccccc4nc3cc2c1-c1ccccc1"
target_system = "TK-10 renal"
result = "> 100 µM"

[[record]]
compound = "COC(=O)C1(Cc2ccccc2)Cc2cc3c(cc2C1)CCC3"
target_system = "TK-10 renal"
result = "> 100 µM"

[[record]]
compound = "O=[N+]([O-])c1ccc(N/N=C2\\C=CCCC2)c([N+](=O)[O-])c1"
target_system = "TK-10 renal"
result = "> 100 µM"

[[record]]
compound = "CCC1(CC)C(=O)N(C(=O)c2ccc(C)cc2)N(C(=O)c2ccc(C)cc2)C1=O"
target_system = "TK-10 renal"
result = "> 75 µM"

[[record]]
compound = "C[O+]=c1cccc2ssnc1-2"
target_system = "TK-10 renal"
result = "> 100 µM"

[[record]]
compound = "O=C1CSC(c2cccc([N+](=O)[O-])c2)N1c1ccc(-c2ccc(-n3c(-c4ccccc4)nc4ccccc4c3=O)cc2)cc1 (stereo unspecified)"
target_system = "TK-10 renal"
result = "> 100 µM"

[[record]]
compound = "COc1cc(/C=C2\\CN(S(=O)(=O)c3ccc(C)cc3)C/C(=C\\c3cc(CN4CCOCC4)c(O)c(OC)c3)C2=O)cc(CN2CCOCC2)c1O"
target_system = "TK-10 renal"
result = "59.8 µM"

[[record]]
compound = "CN1CCC(SC2Cc3cc(Cl)ccc3Sc3ccccc32)CC1 (stereo unspecified)"
target_system = "TK-10 renal"
result = "26.5 µM"

[[record]]
compound = "CN(C)C(=S)OC(Cn1cncn1)c1ccc(Cl)cc1Cl (stereo unspecified)"
target_system = "TK-10 renal"
result = "> 100 µM"

[[record]]
compound = "Nc1nc(N)c(-c2cccc(C(F)(F)F)c2)c(Cc2cccc(C(F)(F)F)c2)n1"
target_system = "TK-10 renal"
result = "20.9 µM"

[[record]]
compound = "OC[C@@H]1CC#C/C=C\\C#CC[C@@H]1CO"
target_system = "TK-10 renal"
result = "> 100 µM"

[[record]]
compound = "C[C@@H](c1ccccc1)N1CN(C(=O)OCc2ccccc2)C(CO)C1=O (stereo partly specified)"
target_system = "TK-10 renal"
result = "> 100 µM"

[[record]]
compound = "CC1(c2ccccc2)N=C(C(N)=O)c2[nH]cnc2N1 (stereo unspecified)"
target_system = "TK-10 renal"
result = "> 100 µM"

[[record]]
compound = "COc1ccc(NC(=O)CC(=O)NN)cc1"
target_system = "TK-10 renal"
result = "> 100 µM"

[[record]]
compound = "CCCCN(CCCC)CC(C(=O)Nc1ccccc1)/C(C)=N\\NC(=O)c1ccncc1 (stereo unspecified)"
target_system = "TK-10 renal"
result = "> 100 µM"

[[record]]
compound = "O=C(O)CCn1cnc2c(=S)nc[nH]c21"
target_system = "TK-10 renal"
result = "> 100 µM"

[[record]]
compound = "O=C1Nc2ccccc2/C1=C/C(=O)c1ccc(N2CCCC2)cc1"
target_system = "TK-10 renal"
result = "> 100 µM"

[[record]]
compound = "[N-]=[N+]=NC1=C(C(=O)c2ccccc2)C(=O)c2cccc3cccc1c23"
target_system = "TK-10 renal"
result = "> 100 µM"

[[record]]
compound = "CCOC(=O)c1ccc2c(c1)nc(-c1ccc(Cl)cc1)n2-c1cc(C(C)(C)C)[nH]n1"
target_system = "TK-10 renal"
result = "> 100 µM"

[[record]]
compound = "CC(C)CC(NC(=O)C(CSc1ccc([N+](=O)[O-])cc1)Cc1ccccc1)C(=O)Nc1ccccc1 (stereo unspecified)"
target_system = "TK-10 renal"
result = "> 100 µM"

[[record]]
compound = "O=C1c2ccccc2-c2c1c1ccc([N+](=O)[O-])cc1c(=O)n2CCCN1CCOCC1"
target_system = "TK-10 renal"
result = "> 100 µM"


====

Recorded TGI for the following compounds
Test system: HCT-116 colon
Test: NCI tumour cell line growth inhibition, 48 h
measured_parameter: TGI (µM)

[[record]]
compound = "COc1ccc(C(=O)c2c(C(C(=O)c3ccc(OC)cc3)C(=O)c3ccc(OC)cc3)n(C(=O)c3ccc(OC)cc3)c3ccccc23)cc1"
measured_parameter = "TGI"
relation_qualifier = ">"
result_number = 100

[[record]]
compound = "COc1ccc([As]=[As]c2ccc(OC)c(NCS(=O)(=O)O)c2)cc1NCS(=O)(=O)O (stereo not given)"
measured_parameter = "TGI"
relation_qualifier = "="
result_number = 3.2

[[record]]
compound = "CC1(c2ccccc2)N=C(C(N)=O)c2[nH]cnc2N1 (stereo not given)"
measured_parameter = "TGI"
relation_qualifier = ">"
result_number = 100

[[record]]
compound = "CC(C)CC(NC(=O)C(CSc1ccc([N+](=O)[O-])cc1)Cc1ccccc1)C(=O)Nc1ccccc1 (stereo not given)"
measured_parameter = "TGI"
relation_qualifier = ">"
result_number = 100

[[record]]
compound = "C=C(C)c1ccccc1 (tested in a mixture with another compound)"
measured_parameter = "TGI"
relation_qualifier = ">"
result_number = 100

[[record]]
compound = "OCc1cn(Cc2ccc(Cl)cc2)c2ccccc12"
measured_parameter = "TGI"
relation_qualifier = "="
result_number = 12

[[record]]
compound = "O=C(c1ccccc1)C(c1ccccc1)C1(O)C(=O)Nc2c(Cl)ccc(Cl)c21 (stereo not given)"
measured_parameter = "TGI"
relation_qualifier = "="
result_number = 31

[[record]]
compound = "Cc1ccc(/C=C2\\COc3ccc(O)c(O)c3C2=O)cc1"
measured_parameter = "TGI"
relation_qualifier = "="
result_number = 2.93

[[record]]
compound = "Cn1nc(-c2ccccc2)c(C(=O)/C=C/c2ccc(F)cc2)c(N2CCCC2)c1=O"
measured_parameter = "TGI"
relation_qualifier = "="
result_number = 20.5

[[record]]
compound = "O=C1Nc2ccccc2/C1=C/C(=O)c1ccc(N2CCCC2)cc1"
measured_parameter = "TGI"
relation_qualifier = "="
result_number = 4.24


====

System: SF-268 CNS
Assay: NCI tumour cell line growth inhibition, 48 h
measured_parameter: TGI

[[record]]
compound = "S=c1sc2c(s1)SCc1cccc(n1)CSc1sc(=S)sc1SCc1cccc(n1)CS2"
target_system = "SF-268 CNS"
measured_parameter = "TGI"
result = "> 100 µM"

[[record]]
compound = "N#CC1(Cc2ccccc2)CCCCN1C(=O)c1ccccc1 (configuration not stated)"
target_system = "SF-268 CNS"
measured_parameter = "TGI"
result = "> 100 µM"

[[record]]
compound = "COc1cc(/C=C2\\CN(S(=O)(=O)c3ccc(C)cc3)C/C(=C\\c3cc(CN4CCOCC4)c(O)c(OC)c3)C2=O)cc(CN2CCOCC2)c1O"
target_system = "SF-268 CNS"
measured_parameter = "TGI"
result = "81.2 µM"

[[record]]
compound = "C[n+]1[se]c2ccccc2c1Cl"
target_system = "SF-268 CNS"
measured_parameter = "TGI"
result = "52.4 µM"

[[record]]
compound = "CN(C)C(=O)N(CCCl)N=O"
target_system = "SF-268 CNS"
measured_parameter = "TGI"
result = "> 100 µM"

[[record]]
compound = "C/C(=N\\NC(=O)c1ccc(C(C)(C)C)cc1)c1ccc(O)cc1O"
target_system = "SF-268 CNS"
measured_parameter = "TGI"
result = "> 100 µM"

[[record]]
compound = "COc1cc(Nc2c(C#N)[n+]([O-])c3ccccc3[n+]2[O-])cc(OC)c1OC"
target_system = "SF-268 CNS"
measured_parameter = "TGI"
result = "> 100 µM"

[[record]]
compound = "O=C(CNC(=O)c1ccccc1)Oc1c(Cl)c(Cl)c(Cl)c(Cl)c1Cl"
target_system = "SF-268 CNS"
measured_parameter = "TGI"
result = "> 100 µM"

[[record]]
compound = "COc1cccc(C(=O)c2sc(Nc3ccc(N4CCN(C(C)C)CC4)cc3)nc2N)c1"
target_system = "SF-268 CNS"
measured_parameter = "TGI"
result = "5.06 µM"

[[record]]
compound = "O=C(O)CCn1cnc2c(=S)nc[nH]c21"
target_system = "SF-268 CNS"
measured_parameter = "TGI"
result = "> 100 µM"

[[record]]
compound = "Cc1[nH]c(-c2ccccc2)c(O)c1C(=O)OC12CC3CC(CC(C3)C1)C2"
target_system = "SF-268 CNS"
measured_parameter = "TGI"
result = "27.2 µM"

[[record]]
compound = "CN(C)c1ccc(C(C#N)NNC(=O)Cc2ccccc2)cc1 (configuration not stated)"
target_system = "SF-268 CNS"
measured_parameter = "TGI"
result = "> 100 µM"

[[record]]
compound = "CS(=O)(=O)Nc1ccc(Nc2c3ccccc3nc3cc([N+](=O)[O-])ccc23)cc1"
target_system = "SF-268 CNS"
measured_parameter = "TGI"
result = "7.03 µM"

[[record]]
compound = "CCOc1ccc(Nc2nc(C)c(C(=O)/C=C/c3ccc(Cl)cc3Cl)s2)cc1"
target_system = "SF-268 CNS"
measured_parameter = "TGI"
result = "77.3 µM"

[[record]]
compound = "COc1ccc(/C=N/Nc2nc(-c3cc4oc(=O)n(C)c4cc3Cl)cs2)cc1OC"
target_system = "SF-268 CNS"
measured_parameter = "TGI"
result = "> 100 µM"

[[record]]
compound = "C[C@@H](c1ccccc1)N1CN(C(=O)OCc2ccccc2)C(CO)C1=O (some centres not stated)"
target_system = "SF-268 CNS"
measured_parameter = "TGI"
result = "> 100 µM"

[[record]]
compound = "COc1ccc(-n2c(N)c(C#N)c(C#N)c2-c2cccc([N+](=O)[O-])c2)cc1"
target_system = "SF-268 CNS"
measured_parameter = "TGI"
result = "> 100 µM"

[[record]]
compound = "N#CCC(=O)N/N=C(\\CCN1CCCC1)CC(c1ccccc1)c1c(O)c2ccccc2oc1=O (configuration not stated)"
target_system = "SF-268 CNS"
measured_parameter = "TGI"
result = "> 100 µM"

[[record]]
compound = "O=CC12c3ccccc3C(c3ccccc31)C1C(=O)NC(=O)C12 (configuration not stated)"
target_system = "SF-268 CNS"
measured_parameter = "TGI"
result = "> 100 µM"

[[record]]
compound = "O=C1N[C@H](Cc2cnc[nH]2)C(=O)N2CCC[C@@H]12"
target_system = "SF-268 CNS"
measured_parameter = "TGI"
result = "> 100 µM"

[[record]]
compound = "S=C(S)N1CCOCC1"
target_system = "SF-268 CNS"
measured_parameter = "TGI"
result = "> 100 µM"

[[record]]
compound = "COc1ccc(N2C(=O)/C(=C/c3ccc(N(CCC#N)CCC#N)cc3C)N=C2/C=C\\c2ccccc2)cc1"
target_system = "SF-268 CNS"
measured_parameter = "TGI"
result = "> 100 µM"

[[record]]
compound = "COc1ccc(OC)c(C(=O)c2cccc(C(=O)c3cc(OC)ccc3OC)n2)c1"
target_system = "SF-268 CNS"
measured_parameter = "TGI"
result = "> 100 µM"

[[record]]
compound = "COc1ccc2c(c1)OCC1Cc3cc4c(cc3OC21)OCO4 (configuration not stated)"
target_system = "SF-268 CNS"
measured_parameter = "TGI"
result = "> 100 µM"

[[record]]
compound = "CCOC(=O)C(Cc1c(C=O)[nH]c2ccccc12)(NC(=O)c1ccccc1)C(=O)OCC"
target_system = "SF-268 CNS"
measured_parameter = "TGI"
result = "39.5 µM"

[[record]]
compound = "COC(=O)C1(Cc2ccccc2)Cc2cc3c(cc2C1)CCC3"
target_system = "SF-268 CNS"
measured_parameter = "TGI"
result = "> 100 µM"

[[record]]
compound = "CS(=O)(=O)c1ccc(Oc2cc(F)cc(C#N)c2)c2c1[C@H](O)[C@H](F)[C@H]2F"
target_system = "SF-268 CNS"
measured_parameter = "TGI"
result = "> 100 µM"

[[record]]
compound = "C(=Nc1ccccc1C1SCCCS1)c1ccccc1"
target_system = "SF-268 CNS"
measured_parameter = "TGI"
result = "> 100 µM"

[[record]]
compound = "CN(C)c1ccc(/C=C2\\C[C@H]3[C@@H]4CCc5cc(OCCN6CCCC6)ccc5[C@H]4CC[C@]3(C)[C@H]2O)cc1"
target_system = "SF-268 CNS"
measured_parameter = "TGI"
result = "61.7 µM"

[[record]]
compound = "Cc1csc(-n2nc(C)cc2C)n1"
target_system = "SF-268 CNS"
measured_parameter = "TGI"
result = "> 100 µM"

[[record]]
compound = "COc1cc2c3c(n(CCCn4ccnc4)c(=O)c2cc1OC)-c1cc2c(cc1C3=O)OCO2"
target_system = "SF-268 CNS"
measured_parameter = "TGI"
result = "> 100 µM"

[[record]]
compound = "COc1cc(/C=C2\\CCc3ccccc3C2=O)ccc1O"
target_system = "SF-268 CNS"
measured_parameter = "TGI"
result = "74.1 µM"

